B1: Pistol ribozyme (parent)
chain: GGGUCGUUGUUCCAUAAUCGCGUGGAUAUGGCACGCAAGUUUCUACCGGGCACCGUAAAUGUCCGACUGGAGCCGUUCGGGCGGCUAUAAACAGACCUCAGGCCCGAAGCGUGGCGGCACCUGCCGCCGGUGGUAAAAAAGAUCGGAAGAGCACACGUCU

# Variants of: B1
# MEASUREMENT_PROTOCOL: aptazyme ON/OFF ratio, guanine; higher = stronger switching; co-transcriptional cleavage with and without guanine
EXPERIMENTAL_ENDPOINT: aptazyme ON/OFF ratio
Give a plain numeric answer without units written out.

>  <MUTATION_ANNOTATION>
U8G G9A U11G C12G C13G

>  <aptazyme ON/OFF ratio>
1.57

$$$$
>  <MUTATION_ANNOTATION>
U8G G9C U10C C12G C13A

>  <aptazyme ON/OFF ratio>
1.16

$$$$
>  <MUTATION_ANNOTATION>
U7A U10G U11G C12U C13G

>  <aptazyme ON/OFF ratio>
1.23

$$$$
>  <MUTATION_ANNOTATION>
U7C U8C U10A U11C C12A C13U

>  <aptazyme ON/OFF ratio>
1.15

$$$$

*Q* Any idea what aptazyme ON/OFF ratio was measured for U7G U8G G9C U10C U11C C12G C13U ?
*A* 1.04

*Q* # query: aptazyme ON/OFF ratio of entry U7C G9U U10C U11G C13A
*A* 1.24

*Q* Quick one: aptazyme ON/OFF ratio of U7A U8A G9C U11A C12G C13U ?
*A* 1.21
